Each recorded value in this set is attributed to patent US8959984B2.

Molecular target: ERK2 (Homo sapiens, UniProt P28482)
Sequence (P28482 whole entry): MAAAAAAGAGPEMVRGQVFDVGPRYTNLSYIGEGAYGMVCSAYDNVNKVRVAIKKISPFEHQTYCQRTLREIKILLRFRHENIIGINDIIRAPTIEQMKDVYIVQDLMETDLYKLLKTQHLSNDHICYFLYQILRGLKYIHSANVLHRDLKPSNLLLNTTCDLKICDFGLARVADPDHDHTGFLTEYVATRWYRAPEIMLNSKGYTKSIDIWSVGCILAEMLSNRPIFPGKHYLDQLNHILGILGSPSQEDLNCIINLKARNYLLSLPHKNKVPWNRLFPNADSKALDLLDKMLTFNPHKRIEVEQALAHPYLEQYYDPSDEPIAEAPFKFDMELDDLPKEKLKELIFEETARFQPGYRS
Test: binding to immobilized V16742 (IVA1/IVA2, HeLa lysate, MS)
Conditions: Erk2; read-out: Kd Avg
measured attribute: Kd

Ask: Give the reported Kd for CC(C)n1c(=O)ccc2cnc(Nc3ccc(OCCN)cc3)nc21 (system: ERK2 (Homo sapiens, UniProt P28482)).
Reply: 36.8 µM

###

Target: CDK7 (Homo sapiens, UniProt P50613)
Construct: endogenous in cells; host or cells: HeLa S3
Sequence (P50613 whole entry): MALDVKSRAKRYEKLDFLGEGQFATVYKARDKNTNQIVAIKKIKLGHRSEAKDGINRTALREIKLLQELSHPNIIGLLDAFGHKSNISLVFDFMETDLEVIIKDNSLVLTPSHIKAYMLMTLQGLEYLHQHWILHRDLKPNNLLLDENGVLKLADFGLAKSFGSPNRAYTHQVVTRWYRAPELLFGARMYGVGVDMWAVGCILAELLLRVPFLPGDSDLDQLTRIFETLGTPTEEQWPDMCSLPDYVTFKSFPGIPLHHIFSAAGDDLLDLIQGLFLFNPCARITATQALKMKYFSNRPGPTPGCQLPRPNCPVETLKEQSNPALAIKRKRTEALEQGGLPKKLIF
Experiment: binding to immobilized V16742 (IVA1/IVA2, HeLa lysate, MS)
Settings: Experiment 2, read-out: Kd
measured attribute: pKd
The quantity pKd is defined as the negative base-10 logarithm of the molar concentration.

Ask: GET /values?readout=pKd&item= CC(C)n1c(=O)ccc2cnc(Nc3ccc(OCCN)cc3)nc21
Reply: 4.21

###

Target: ILK (IPI00013219) (Homo sapiens, UniProt Q13418)
Construct: endogenous in cells
Sequence (Q13418 whole entry): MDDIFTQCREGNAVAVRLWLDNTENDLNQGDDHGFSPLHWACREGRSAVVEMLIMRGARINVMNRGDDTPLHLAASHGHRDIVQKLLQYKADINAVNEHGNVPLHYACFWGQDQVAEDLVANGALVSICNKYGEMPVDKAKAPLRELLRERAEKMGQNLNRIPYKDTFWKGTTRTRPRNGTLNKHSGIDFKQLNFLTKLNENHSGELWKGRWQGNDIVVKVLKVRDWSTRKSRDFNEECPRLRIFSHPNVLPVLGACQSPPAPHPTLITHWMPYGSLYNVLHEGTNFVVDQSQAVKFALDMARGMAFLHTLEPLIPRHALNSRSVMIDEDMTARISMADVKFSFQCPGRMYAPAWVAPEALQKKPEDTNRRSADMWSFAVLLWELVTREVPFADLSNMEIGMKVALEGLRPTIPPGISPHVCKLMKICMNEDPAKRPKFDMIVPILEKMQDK
Experiment: binding to VI16742 beads (HeLa lysate, SILAC MS)
Settings: immobilized VI16742
measured attribute: Ki (µM)
Give the number; µM is assumed, so skip it.

Ask: GET /values?readout=Ki&item= CC(C)n1c(=O)ccc2cnc(Nc3ccc(OCCN)cc3)nc21 [V16742]
Reply: 172

###

Target: LYN (Homo sapiens)
Sequence (P07948 whole entry): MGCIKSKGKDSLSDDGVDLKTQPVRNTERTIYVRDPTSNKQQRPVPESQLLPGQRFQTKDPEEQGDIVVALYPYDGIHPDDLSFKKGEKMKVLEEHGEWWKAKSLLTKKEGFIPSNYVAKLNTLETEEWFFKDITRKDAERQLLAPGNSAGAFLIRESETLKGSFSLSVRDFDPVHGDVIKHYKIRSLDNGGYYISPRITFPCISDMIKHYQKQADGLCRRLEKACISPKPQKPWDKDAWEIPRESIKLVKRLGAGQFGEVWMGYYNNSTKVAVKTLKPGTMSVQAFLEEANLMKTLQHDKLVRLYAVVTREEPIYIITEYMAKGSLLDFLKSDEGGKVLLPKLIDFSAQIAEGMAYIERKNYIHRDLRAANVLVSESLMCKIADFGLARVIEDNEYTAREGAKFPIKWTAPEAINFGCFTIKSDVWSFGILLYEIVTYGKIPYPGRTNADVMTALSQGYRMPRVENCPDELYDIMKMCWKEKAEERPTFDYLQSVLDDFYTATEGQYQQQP
Assay: binding to AX14596 beads (HeLa lysate, SILAC MS)
Description: Differentially SILAC-encoded cell lysates were either incubated with the inhibitor beads displaying immobilized AX14596 or control resin devoid of ligand. In parallel, the supernatant from the first binding step was subjected to a second incubation with the AX14596 resin (FIG. 4). The resulting three elution fractions were combined, resolved by gel electrophoresis, proteolytically digested and the relative abundance of the retained proteins quantified. […]
measured attribute: Ki (µM)
Give the number; µM is assumed, so skip it.

Ask: Give the reported Ki for COc1cc2ncnc(Nc3ccc(F)c(Cl)c3)c2cc1OCCCN (system: LYN (Homo sapiens)).
Reply: 195

###

Target: RIPK2 (Homo sapiens)
Sequence (O43353 whole entry): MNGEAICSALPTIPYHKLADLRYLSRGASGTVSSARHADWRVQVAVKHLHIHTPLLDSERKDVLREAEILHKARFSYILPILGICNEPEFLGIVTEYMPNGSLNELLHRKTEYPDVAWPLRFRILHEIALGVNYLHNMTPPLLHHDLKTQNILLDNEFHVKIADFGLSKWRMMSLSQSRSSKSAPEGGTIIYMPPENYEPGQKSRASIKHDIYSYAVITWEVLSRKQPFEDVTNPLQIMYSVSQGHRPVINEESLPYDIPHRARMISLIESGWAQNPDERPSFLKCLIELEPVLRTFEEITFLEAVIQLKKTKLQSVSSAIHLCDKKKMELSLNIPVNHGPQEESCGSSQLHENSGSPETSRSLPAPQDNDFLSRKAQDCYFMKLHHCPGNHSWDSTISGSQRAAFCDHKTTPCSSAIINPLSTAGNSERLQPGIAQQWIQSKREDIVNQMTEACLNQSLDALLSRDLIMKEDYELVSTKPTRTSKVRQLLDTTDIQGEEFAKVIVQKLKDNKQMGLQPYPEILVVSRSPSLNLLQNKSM
Assay: binding to immobilized V16742 (IVA1/IVA2, HeLa lysate, MS)
Details: EXPERIMENT 2, read-out: Kd
measured attribute: pKd
The quantity pKd is defined as the negative base-10 logarithm of the molar concentration.

Ask: GET /values?readout=pKd&item= CC(C)n1c(=O)ccc2cnc(Nc3ccc(OCCN)cc3)nc21
Reply: 4.91

###

Molecular target: AGL (IPI00328318) (Homo sapiens, UniProt P35573)
Construct: endogenous in cells; host or cells: HeLa S3
Sequence (P35573 whole entry): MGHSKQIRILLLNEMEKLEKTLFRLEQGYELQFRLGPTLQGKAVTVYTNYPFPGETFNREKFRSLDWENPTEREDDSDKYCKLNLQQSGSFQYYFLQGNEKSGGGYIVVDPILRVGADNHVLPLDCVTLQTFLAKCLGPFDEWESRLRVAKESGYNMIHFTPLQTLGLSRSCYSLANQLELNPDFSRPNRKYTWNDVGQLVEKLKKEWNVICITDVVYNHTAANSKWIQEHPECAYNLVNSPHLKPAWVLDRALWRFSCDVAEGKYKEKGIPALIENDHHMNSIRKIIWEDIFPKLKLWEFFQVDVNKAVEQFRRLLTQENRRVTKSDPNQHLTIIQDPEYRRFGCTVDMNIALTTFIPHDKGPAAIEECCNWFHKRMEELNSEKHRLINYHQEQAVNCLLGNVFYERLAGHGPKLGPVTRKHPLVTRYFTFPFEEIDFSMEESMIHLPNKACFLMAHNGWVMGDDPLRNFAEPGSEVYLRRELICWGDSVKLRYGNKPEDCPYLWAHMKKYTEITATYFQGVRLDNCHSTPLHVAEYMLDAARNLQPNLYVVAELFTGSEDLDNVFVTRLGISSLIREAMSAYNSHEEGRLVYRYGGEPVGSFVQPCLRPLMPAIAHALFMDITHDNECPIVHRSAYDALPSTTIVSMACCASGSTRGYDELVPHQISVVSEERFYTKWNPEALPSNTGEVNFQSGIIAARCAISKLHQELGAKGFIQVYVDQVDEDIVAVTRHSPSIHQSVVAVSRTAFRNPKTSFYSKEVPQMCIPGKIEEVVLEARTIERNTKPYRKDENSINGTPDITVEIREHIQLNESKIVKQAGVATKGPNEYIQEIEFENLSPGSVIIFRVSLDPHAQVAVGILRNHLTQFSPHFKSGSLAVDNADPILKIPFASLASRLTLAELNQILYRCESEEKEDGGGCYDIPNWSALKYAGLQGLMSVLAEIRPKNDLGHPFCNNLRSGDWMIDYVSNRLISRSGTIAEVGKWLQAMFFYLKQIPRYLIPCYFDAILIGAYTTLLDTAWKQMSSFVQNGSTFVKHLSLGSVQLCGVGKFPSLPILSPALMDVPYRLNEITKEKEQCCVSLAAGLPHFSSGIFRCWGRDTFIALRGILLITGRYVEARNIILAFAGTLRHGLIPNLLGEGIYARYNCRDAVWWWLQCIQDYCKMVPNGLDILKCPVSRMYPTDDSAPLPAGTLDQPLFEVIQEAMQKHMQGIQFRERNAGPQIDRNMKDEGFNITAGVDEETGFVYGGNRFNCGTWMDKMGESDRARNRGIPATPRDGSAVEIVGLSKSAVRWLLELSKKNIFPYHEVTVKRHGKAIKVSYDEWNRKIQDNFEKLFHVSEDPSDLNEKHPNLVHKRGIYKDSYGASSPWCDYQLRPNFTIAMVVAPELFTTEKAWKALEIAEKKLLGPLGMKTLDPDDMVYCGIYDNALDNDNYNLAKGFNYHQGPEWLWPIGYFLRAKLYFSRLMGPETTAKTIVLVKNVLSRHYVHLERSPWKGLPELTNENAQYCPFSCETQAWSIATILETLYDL
Experiment: binding to VI16742 beads (HeLa lysate, SILAC MS)
Details: immobilized VI16742
measured attribute: pKi
The quantity pKi is defined as the negative base-10 logarithm of the molar concentration.

Ask: Give the reported pKi for CC(C)n1c(=O)ccc2cnc(Nc3ccc(OCCN)cc3)nc21 [V16742] (system: AGL (IPI00328318) (Homo sapiens, UniProt P35573)).
Reply: 3.66

###

Molecular target: Sepiapterin reductase (Homo sapiens, UniProt P35270)
Sequence (P35270 whole entry): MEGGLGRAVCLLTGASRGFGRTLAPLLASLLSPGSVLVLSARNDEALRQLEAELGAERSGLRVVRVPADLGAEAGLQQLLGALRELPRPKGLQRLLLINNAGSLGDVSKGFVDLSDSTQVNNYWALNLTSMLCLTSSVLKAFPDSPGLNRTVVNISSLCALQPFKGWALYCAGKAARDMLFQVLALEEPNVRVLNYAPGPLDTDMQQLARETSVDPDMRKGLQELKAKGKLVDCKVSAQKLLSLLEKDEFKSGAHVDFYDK
Test: binding to immobilized V16742 (IVA1/IVA2, HeLa lysate, MS)
Conditions: Kd Avg, Sepiapterin reductase; average of two experiments
measured attribute: pKd
The quantity pKd is defined as the negative base-10 logarithm of the molar concentration.

Ask: GET /values?readout=pKd&item= CC(C)n1c(=O)ccc2cnc(Nc3ccc(OCCN)cc3)nc21
Reply: 4.03
